Biological target: hERG potassium channel (Homo sapiens, UniProt Q12809)
Sequence (Q12809 whole entry): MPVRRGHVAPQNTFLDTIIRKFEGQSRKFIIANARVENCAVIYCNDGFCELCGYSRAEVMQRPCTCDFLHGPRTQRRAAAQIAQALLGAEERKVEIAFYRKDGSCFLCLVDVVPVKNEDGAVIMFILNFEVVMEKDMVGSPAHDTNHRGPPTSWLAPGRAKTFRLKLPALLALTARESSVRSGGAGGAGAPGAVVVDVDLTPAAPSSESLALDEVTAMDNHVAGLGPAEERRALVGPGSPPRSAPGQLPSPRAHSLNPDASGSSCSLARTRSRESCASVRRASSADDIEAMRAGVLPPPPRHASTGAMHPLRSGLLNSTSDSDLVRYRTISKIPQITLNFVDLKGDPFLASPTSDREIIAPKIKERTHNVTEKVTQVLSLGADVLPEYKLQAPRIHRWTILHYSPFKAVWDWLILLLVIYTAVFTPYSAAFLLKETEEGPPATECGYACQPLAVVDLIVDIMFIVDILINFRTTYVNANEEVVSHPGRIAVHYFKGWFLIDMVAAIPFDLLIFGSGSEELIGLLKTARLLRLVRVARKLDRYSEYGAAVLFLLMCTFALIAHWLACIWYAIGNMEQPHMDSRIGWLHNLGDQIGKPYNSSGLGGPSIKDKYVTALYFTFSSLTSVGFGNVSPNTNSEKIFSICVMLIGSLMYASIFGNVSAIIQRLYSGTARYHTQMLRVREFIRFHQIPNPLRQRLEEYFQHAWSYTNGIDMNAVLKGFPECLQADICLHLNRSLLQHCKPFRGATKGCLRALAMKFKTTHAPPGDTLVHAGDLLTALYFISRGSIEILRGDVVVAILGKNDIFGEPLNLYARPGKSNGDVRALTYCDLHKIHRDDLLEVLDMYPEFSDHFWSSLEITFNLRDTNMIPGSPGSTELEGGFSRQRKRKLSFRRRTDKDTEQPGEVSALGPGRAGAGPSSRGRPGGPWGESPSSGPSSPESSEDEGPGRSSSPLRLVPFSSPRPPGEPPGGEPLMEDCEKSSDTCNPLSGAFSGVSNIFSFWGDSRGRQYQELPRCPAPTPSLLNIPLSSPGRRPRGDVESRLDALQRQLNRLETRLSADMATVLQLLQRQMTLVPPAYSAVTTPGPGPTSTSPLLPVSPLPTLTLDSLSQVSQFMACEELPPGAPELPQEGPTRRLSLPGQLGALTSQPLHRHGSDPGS
Experiment: Evaluation of cardiac safety: hERG potassium channel whole-cell patch clamp in HEK-293 cells
Details: HEK-293 cells over-expressing hERG potassium channel, tail current, room temperature
attribute-measured: IC50

O=C(Nc1ccc(OC(F)(F)Cl)cc1)c1cnc(N2CC[C@@H](O)C2)c(-c2cc3c([nH]2)C(=O)NC3)c1 ... > 30 µM

Kindly review the next compound as well.
Input: Bench note: what IC50 did `O=C(Nc1ccc(OC(F)(F)Cl)cc1)c1cnc(N2CC(O)C2)c(-c2cc3c([nH]2)C(=O)NC3)c1` show?
Output: > 30 µM

====

Assay: Evaluation of pharmacokinetics in mice
Type: in vivo
Conditions: mouse, po; ICR mice, ig, 10 mg/kg, plasma
Listed next: entries and their corresponding Tmax.
Please respond with the number in h and leave the unit unwritten.

Field: example entries. Status: answers known.
Cn1ccc(-c2cc(C(=O)Nc3ccc(OC(F)(F)Cl)cc3)cnc2N2CCCC2)cc1=O ... 2
Cn1ccc(-c2cc(C(=O)Nc3ccc(OC(F)(F)Cl)cc3)cnc2N2CC[C@@H](F)C2)cc1=O ... 3
CN(C)c1ncc(C(=O)Nc2ccc(OC(F)(F)Cl)cc2)cc1-c1cc(=O)n(C)cn1 ... 2

Input: Tmax lookup needed for `Cn1ccc(-c2cc(C(=O)Nc3ccc(OC(F)(F)Cl)cc3)cnc2N2CCOCC2)cc1=O` , thanks.
Output: 3

====

Biological target: Ba/F3-BCR-ABL1-T315I-C3 cells (Homo sapiens, UniProt P00519, T315I, cells depend on it)
Construct: fused on or other part: P11274 (Breakpoint cluster region protein)
Test: Inhibitory effect of compounds on proliferation of BCR-ABL T315I-transfected Ba/F3 cells (CCK-8)
Type: cell-based
Conditions: 72 h with compound, CCK-8, 5% serum, read-out: IC50 (nM) Ba/F3-BCR-ABL1 T315I
Lab note: anything with GI50 below 5 nM is marked 1; values at 5 nM or higher are marked 0.

Examples from the recorded data:
CN(C)c1ncc(C(=O)Nc2ccc(OC(F)(F)Cl)cc2)cc1-c1cc(=O)n(C)cn1 [Compound 61] ... 1
CN1Cc2cc(-c3cc(C(=O)Nc4ccc(OC(F)(F)Cl)cc4)cnc3N3CC[C@@H](O)C3)[nH]c2C1=O [Compound 111] ... 1
O=C(Nc1ccc(OC(F)(F)Cl)cc1)c1ccc(N2CC(O)C2)c(-c2cc3c([nH]2)C(=O)NC3)c1 [Compound 117] ... 1
Cn1ccc(-c2cc(C(=O)Nc3ccc(OC(F)(F)Cl)cc3)cnc2N2CC3(COC3)C2)cc1=O [Compound 5] ... 0
Cn1cnc(-c2cc(C(=O)Nc3ccc(OC(F)(F)Cl)cc3)cnc2N2CCSCC2)cc1=O [Compound 67] ... 0
Cn1ccc(-c2cc(C(=O)Nc3ccc(OC(F)(F)Cl)cc3)cnc2N2CC[C@@H](F)C2)cc1=O [Compound 16] ... 1

Now examine the next entry.
Input: Threshold test, GI50 < 5 nM: O=C(Nc1ccc(OC(F)(F)Cl)cc1)c1cnc(N2CC(O)C2)c(-c2cc3c([nH]2)C(=O)NC3)c1 [Compound 104]
Output: 1

====

Target: Ba/F3-BCR-ABL1-T315I-C3 cells (Homo sapiens, UniProt P00519, T315I, cells depend on it)
Construct: fused on or other part: P11274 (Breakpoint cluster region protein)
Assay: Inhibitory effect of compounds on proliferation of BCR-ABL T315I-transfected Ba/F3 cells (CCK-8)
Type: cell-based
Details: 72 h with compound, CCK-8, 5% serum, read-out: IC50 (nM) Ba/F3-BCR-ABL1 T315I
Label TRUE when GI50 is strictly below 1 nM; otherwise label FALSE.

Input: Please determine if `CN(C)c1ncc(C(=O)Nc2ccc(OC(F)(F)Cl)cc2)cc1-c1cc2c([nH]1)C(=O)NC2` is below 1 nM in terms of GI50.
Output: TRUE

Input: In the record for `O=C(Nc1ccc(OC(F)(F)Cl)cc1)c1cnc(N2CC(O)C2)c(-c2cc3c([nH]2)C(=O)N(C2CC2)C3)c1` , is GI50 less than 1 nM?
Output: TRUE

Input: Field: below-cutoff. Rule: recorded GI50 strictly less than 1 nM. Subject: `Cn1cnc(-c2cc(C(=O)Nc3ccc(OC(F)(F)Cl)cc3)cnc2N2CCC(F)(F)CC2)cc1=O`
Output: FALSE

Input: Field: below-cutoff. Rule: recorded GI50 strictly less than 1 nM. Subject: `O=C(Nc1ccc(OC(F)(F)Cl)cc1)c1cnc(N2CCOCC2)c(-c2cc3c([nH]2)C(=O)NC3)c1`
Output: TRUE
